Data origin: a melting point compilation (Tetko et al.; mined from patent text by program, amines drawn as free bases though some values may be those of a salt)

READOUT LABEL: melting point

>>> df
                                   compound  value_reported
0  NCC(O)CN1CCC(C2(c3ccc(F)cc3)OCCO2)CC1 (stereo not drawn)   132 to 136 °C
1  CC(CC(=O)Nc1c(Cl)ccc2nc(CCCNCCCO)ccc12)c1ccccc1 (stereo not drawn)   118 to 120 °C
2         CCN(CC)c1ccc2cc(C(=O)O)c(=O)oc2c1   227 to 229 °C
3  O=C(O)C1CCc2c(c3ccccc3n2C(=O)c2cccc(Cl)c2)C1 (stereo not drawn)   179 to 181 °C

## Input Requested field: melting point. Item: CCCCC(=O)Nc1ccc(Br)c(-n2nc(CC)n(Cc3ccc(-c4ccccc4S(=O)(=O)NC(=O)OC(C)(C)C)cc3F)c2=O)c1
## Output 108 to 110 °C

## Input Requested field: melting point. Item: CSc1ccc(C=CC(=O)c2ccc(O)cc2)cc1
## Output 171 °C

## Input Requested field: melting point. Item: CCN(CCCc1coc2c(OC)cccc12)C1COc2c(F)ccc(C(N)=O)c2C1 (stereo not drawn)
## Output 125 to 128 °C

## Input Requested field: melting point. Item: COc1ccc2c(c1)C1=C(CC2)NC(=O)CC1
## Output 227 to 228 °C

## Input Requested field: melting point. Item: COc1ccc(-n2c(=O)oc3ccc(-c4ccc(F)cc4F)cc3c2=O)cc1OC
## Output 198 to 199 °C

## Input Requested field: melting point. Item: CC(=O)Nc1cc(C(C)(C)CC(C)(C)C)ccc1O
## Output 176 to 177 °C

## Input Requested field: melting point. Item: COc1cc([C@@H]2c3cc4c(cc3C=C[C@H]2C(=O)O)OCO4)cc(OC)c1OC (relative stereo)
## Output 177 to 180 °C

## Input Requested field: melting point. Item: COCCOc1ccc(CC(C)C(=O)O)c(Oc2ncc(C(F)(F)F)cc2Cl)c1 (stereo not drawn)
## Output 130 to 131 °C

## Input Requested field: melting point. Item: CCC1(CC)c2cc(-c3nc4ccccc4s3)ccc2-c2ccc(N(c3cccc(Oc4ccc([N+](=O)[O-])cc4)c3)c3cccc(Oc4ccc([N+](=O)[O-])cc4)c3)cc21
## Output 200 to 201 °C

* * *

READOUT LABEL: melting point

Here's what some known entries look like.
In [3]: df
Out[3]:
                                   compound  value_reported
0  COc1cc(C(=O)N2Cc3ccc(C(=O)NCc4ccccc4)n3Cc3ccccc32)ccc1-c1ccccc1C   170 to 174 °C
1  CC1CC2C3CC(F)C4=CC(=O)C=CC4(C)C3C(O)CC2(C)C1C(=O)COC(=O)CCC(=O)O (configuration not stated)   212 to 214 °C

## Input Requested field: melting point. Item: COc1nc(N)nc(-c2ccc(S(C)(=O)=O)cc2)c1-c1ccc(=O)n(C(C)C)n1
## Output 148 to 151 °C

## Input Requested field: melting point. Item: Cc1cc(-c2cc(C(F)F)n3ncc(-c4nc(-c5ccc(N)nc5)no4)c3n2)ccc1Cl
## Output 243 °C

## Input Requested field: melting point. Item: C[C@H](NC(=O)CC#N)C(=O)N1CCC[C@H]1C(=O)Nc1ccccc1
## Output 183 to 184 °C

## Input Requested field: melting point. Item: C=CCOc1ccccc1S(=O)(=O)NC(=O)Nc1nc(C)nc(OC)n1
## Output 146 to 147 °C

* * *

READOUT LABEL: melting point

Here's what some known entries look like.
                                   molecule  value_reported
0     O=C(O)Cc1ccc(-n2cnc3cnc4ccccc4c32)cc1   236 to 240 °C
1  O=c1[nH]c(-c2c[nH]c3ccccc23)nc2ccc(N3CCCC3)cc12          298 °C
2                       CC(=O)SCSc1cn(C)nn1     71 to 72 °C
3  O=C1OC(c2ccccc2)CCN1Cc1ccccc1NS(=O)(=O)C(F)(F)F (stereo not drawn)          152 °C
4       CCN(CC)c1nc2[nH]c3c(c(=O)n2n1)SCCC3   308 to 310 °C
5                    O=c1ccc2cc(I)ccc2[nH]1          261 °C

## Input Requested field: melting point. Item: COc1ccc2[nH]c(C)cc2c1O
## Output 118 to 119 °C

## Input Requested field: melting point. Item: CCO[C@@H]1c2ccc3c(nc(C)n3C)c2O[C@H](c2ccccc2)[C@H]1O
## Output 222 °C

## Input Requested field: melting point. Item: CCOC(=O)C1CN2c3c(cc4ccccc4c3CCC2C)C1=O (stereo not drawn)
## Output 178 to 180 °C

## Input Requested field: melting point. Item: Nc1cc(Oc2ccc3c(C(=O)Nc4ccc(F)c(C(F)(F)F)c4)nccc3c2)ncn1
## Output 219 to 222 °C

## Input Requested field: melting point. Item: N#Cc1c[nH]c(-c2ccccc2)c1
## Output 150 to 151 °C

## Input Requested field: melting point. Item: O=C1Cc2cccc(Oc3ccc(Cl)cc3)c2O1
## Output 100 to 102 °C

## Input Requested field: melting point. Item: CCCCCCCCCCCCCCCCSCC(CNS(=O)(=O)CCCCl)NC(=O)OC(C)(C)C (stereo not drawn)
## Output 100 to 102 °C

* * *

The reader will find reported melting point values listed item by item below.

## Input Requested field: melting point. Item: COC(=O)c1cc(S(=O)(=O)N(C)C)c(F)c(F)c1Nc1ccc(I)cc1Cl
## Output 154 to 156 °C

## Input Requested field: melting point. Item: COc1cc(-c2ccccc2)on1
## Output 69 to 71 °C

## Input Requested field: melting point. Item: C#CCOc1ccccc1OS(=O)(=O)NC(=O)Nc1nc(OC)cc(OC)n1
## Output 125 to 126 °C

## Input Requested field: melting point. Item: COc1ccc2c3c1c(C)c(-c1ccc(O)cc1)n3CC(CCN1CCN(c3cc(C)ccn3)CC1)O2 (stereo not drawn)
## Output 193 to 195 °C

## Input Requested field: melting point. Item: NC(=O)c1ccc(Cl)c([N+](=O)[O-])c1N1CC1
## Output 216 °C

## Input Requested field: melting point. Item: CNC(=O)C1CN(CC(=O)Nc2c(C)cc(C)cc2C)CCN1CCCC(c1ccc(F)cc1)c1ccc(F)cc1 (stereo not drawn)
## Output 82.3 °C

## Input Requested field: melting point. Item: CN1Cc2c(C(N)=O)ncn2-c2ccc(Cl)cc2C1=O
## Output 275 to 277 °C

## Input Requested field: melting point. Item: COc1ccc(-c2[nH]nc3c2C(=O)c2c(NC(=O)Cc4ccccc4)cccc2-3)cc1
## Output 280 °C

* * *

READOUT LABEL: melting point

Here's what some known entries look like.
                                   compound  readout_label  value_reported
0  C=CC(CCc1ccccc1)NC(=O)c1ccccc1 (stereo not drawn)  melting point          131 °C
1  COc1ccc(C=CC(=O)c2c(OC)cc(OC)cc2OC(C)=O)cc1  melting point   105 to 107 °C

## Input Requested field: melting point. Item: CN1CCC(c2c[nH]c3ccc(NC(=O)C4CCC4)nc23)CC1
## Output 104 °C

## Input Requested field: melting point. Item: COc1cc(Nc2c(C#N)cnc3cc(C#CCN4CCN(C)CC4)sc23)c(Cl)cc1Cl
## Output 172 to 173 °C

## Input Requested field: melting point. Item: COc1ccc(NC(=O)NCc2ccc3c(c2)CN(C2CCC(=O)NC2=O)C3=O)cc1 (stereo not drawn)
## Output 255 to 257 °C

## Input Requested field: melting point. Item: COc1ccc(S(=O)(=O)N(CC(N)=O)c2ccc(C)cc2Cc2ccccc2Cl)cc1OC
## Output 141 °C

## Input Requested field: melting point. Item: CCOC(=O)c1nc(C)n(Cc2ccc([N+](=O)[O-])cc2)c1C(=O)OCC
## Output 109 °C

## Input Requested field: melting point. Item: Cc1cc(-c2noc(C(F)(F)F)n2)cc(C)c1OCCCc1ccc(CO)nc1
## Output 92 to 94 °C

## Input Requested field: melting point. Item: CC1=C(C(=O)O)C(c2cccc([N+](=O)[O-])c2)N(C(=O)N(C)C)C(=O)N1 (stereo not drawn)
## Output 193 to 195 °C

## Input Requested field: melting point. Item: CN(C)S(=O)(=O)n1cc(S(=O)(=O)N2CCc3ccccc3C2)nc1C#N
## Output 143 to 144 °C
